Assay: qHTS assay to identify small molecule antagonists of the retinoid acid receptor (RAR) signaling pathway - cell viability counter screen (AID 1159551); also: nearly all actives have a fitted effect of over 35% in size
Settings: C3RL4 cells viability, ATP luminescence (CellTiter-Glo), 6 h; series mostly up to 92.4 µM
Records with an inconclusive call do not appear. Activity calls are given as the source filed them. Calls follow the shape of the dose curve; as a rule, active = well fitted cell-killing curve with a large enough effect in the repeat runs; inconclusive = weak or mixed curves, or effect the other way; inactive = flat fitted curve, though single readings scatter.
Classes used: active, inactive

molecule=Cc1cccc(O)c1C assigned_label=inactive
molecule=CO[Si](OC)(OC)c1ccccc1 assigned_label=inactive
molecule="c1ccc2c(c1)CCCC2C1=NCCN1 (stereo not drawn)" assigned_label=inactive
molecule=CC(C)(C)NC(=O)[C@@H]1CN(Cc2cccnc2)CCN1C[C@@H](O)C[C@@H](Cc1ccccc1)C(=O)N[C@H]1c2ccccc2C[C@H]1O assigned_label=inactive
molecule=Cc1cccc2n[nH]nc12 assigned_label=inactive
molecule="C#CC(C)(CC)OC(=O)c1ccccc1C(=O)O (stereo not drawn)" assigned_label=inactive
molecule=O=C1CC2(CCCC2)CC(=O)N1CCCCN1CCN(c2ncccn2)CC1 assigned_label=inactive
molecule=CCCCN(CCO)CCCC assigned_label=inactive
molecule=CN1C(=O)c2ccc([N+](=O)[O-])cc2C1=O assigned_label=inactive
molecule=O=C(O)CCc1ccccc1 assigned_label=inactive
molecule=C=CC(=O)OCCCCCCCC assigned_label=inactive
molecule=CN(C)c1ccc(C(=C2C=CC(=[N+](C)C)C=C2)c2ccccc2)cc1 assigned_label=active
molecule=CC(C)CCOC(=O)c1ccc(N(C)C)cc1 assigned_label=inactive

###

Molecular target: Luciferin 4-monooxygenase (Photinus pyralis) (UniProt P08659)
Sequence (P08659 whole entry, looked up): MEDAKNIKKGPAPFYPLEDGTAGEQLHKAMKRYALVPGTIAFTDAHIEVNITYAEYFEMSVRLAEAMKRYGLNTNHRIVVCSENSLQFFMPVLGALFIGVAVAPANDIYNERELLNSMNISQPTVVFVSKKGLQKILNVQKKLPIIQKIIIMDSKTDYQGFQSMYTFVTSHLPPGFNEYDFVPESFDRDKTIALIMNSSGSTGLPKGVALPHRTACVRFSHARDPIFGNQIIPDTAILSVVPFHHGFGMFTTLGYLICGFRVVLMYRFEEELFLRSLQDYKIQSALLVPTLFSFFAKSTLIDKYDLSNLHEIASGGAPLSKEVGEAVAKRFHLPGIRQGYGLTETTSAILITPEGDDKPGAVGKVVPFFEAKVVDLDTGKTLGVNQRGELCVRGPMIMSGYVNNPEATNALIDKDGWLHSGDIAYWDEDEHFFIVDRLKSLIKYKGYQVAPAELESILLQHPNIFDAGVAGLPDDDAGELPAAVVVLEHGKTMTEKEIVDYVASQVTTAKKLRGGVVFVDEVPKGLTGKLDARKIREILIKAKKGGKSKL
Test: qHTS assay to identify small molecule inhibitors of firefly luciferase (AID 1224835); also: nearly all actives have a fitted effect of over 25% in size
Settings: purified P. pyralis luciferase, luminescence inhibition; series mostly up to 115 µM
Results filed as inconclusive are left out. Activity calls are given as the source filed them. Calls come from the whole dose curve; as a rule, active = well fitted inhibition curve with a large enough effect in the repeat runs; inconclusive = weak or mixed curves; inactive = flat fitted curve, though single readings scatter. Starred links: 1 amine or outer side, 2 acyl side, 3 side chain; linkers in the order of their positions; H or OH if unused. Positions of bridges follow the written chain, without caps; N, C: chain ends. Non-standard residues stand in square brackets, D forms with d. Residues, ends and D or L forms follow the SMILES beside them. Chains are numbered I, II in the order given. Actinocin(9to1) = Cc1c2oc3c(C)ccc(C(=O)[*:1])c3nc-2c(C(=O)[*:2])c(N)c1=O; NMeV = CN[C@H](C(=O)O)C(C)C; Sar = CNCC(=O)O
Classes used: true (active), false (inactive)

molecule=CC(=O)C1=C(C)[C@@H]2C[C@@]3(C1)[C@H](C)CC[C@H]3C2(C)C assigned_label=false
molecule=CN1C(=O)c2ccc([N+](=O)[O-])cc2C1=O assigned_label=false
molecule=Nc1cc(Cl)c(-c2cc(Cl)c(N)cc2Cl)cc1Cl assigned_label=false
molecule=NCCO assigned_label=false
molecule=CCCCCCCCCCCC[N+](C)(C)C assigned_label=false
molecule="CNC1(C)C2CCC(C2)C1(C)C (configuration not stated)" assigned_label=false
molecule="CCn1cc(C(=O)O)c(=O)c2cc(F)c(N3CCNC(C)C3)c(F)c21 (configuration not stated)" assigned_label=false
molecule=CCCC(=O)c1ccccc1 assigned_label=false
molecule="CC1COc2c(N3CCN(C)CC3)c(F)cc3c(=O)c(C(=O)O)cn1c23 (configuration not stated)" assigned_label=false
molecule=O=C1NCC2(CCN(CCc3ccccc3)CC2)O1 assigned_label=false
molecule=CCC(CO)(CO)COCC(CC)(CO)CO assigned_label=false
molecule=COc1ccc(COC(C)=O)cc1 assigned_label=false
molecule=NCCCCCC(=O)O assigned_label=false
molecule=CC(C)(O)CCC(C)(C)O assigned_label=false
molecule="c1cc(C(c2ccc(OCC3CO3)cc2)C(c2ccc(OCC3CO3)cc2)c2ccc(OCC3CO3)cc2)ccc1OCC1CO1 (configuration not stated)" assigned_label=true
molecule="Cc1c2oc3c(C)ccc(C(=O)N[C@@H]4C(=O)N[C@H](C(C)C)C(=O)N5CCC[C@H]5C(=O)N(C)CC(=O)N(C)[C@@H](C(C)C)C(=O)O[C@@H]4C)c3nc-2c(C(=O)N[C@@H]2C(=O)N[C@H](C(C)C)C(=O)N3CCC[C@H]3C(=O)N(C)CC(=O)N(C)[C@@H](C(C)C)C(=O)O[C@@H]2C)c(N)c1=O (I: T[dV]P[Sar][NMeV] / II: T[dV]P[Sar][NMeV]; ester I:1-I:C, II:1-II:C; linker I:N-II:N via Actinocin(9to1))" assigned_label=false
molecule=CCCCOCCOC(=O)c1ccccc1C(=O)OCCOCCCC assigned_label=false
molecule=COC(=O)c1cccc(C(=O)OC)c1 assigned_label=false
molecule="CCC(=O)/C=C/C1C(C)=CCCC1(C)C (configuration not stated)" assigned_label=false
molecule=O=C(O)CCc1ccccc1 assigned_label=false
molecule=O=C1CC2(CCCC2)CC(=O)N1CCCCN1CCN(c2ncccn2)CC1 assigned_label=false
molecule="c1ccc2c(c1)CCCC2C1=NCCN1 (configuration not stated)" assigned_label=false

###

Experiment: qHTS RealTime-Glo MT Cell Viability Assay in HEK293 cells - 0 hour (AID 1224880); also: top concentration of the series differs between compounds; nearly all actives have a fitted effect of over 45% in size
Settings: RealTime-Glo luminescence; series mostly up to 76.8 µM
Records with an inconclusive call do not appear. Active and inactive are the calls of the source. The call rests on the fitted dose curve; in most records, active means well fitted cell-killing curve with a large enough effect in the repeat runs; inconclusive means weak or mixed curves, or effect the other way; inactive means flat fitted curve, though single readings scatter.
reported property: outcome

smiles_text=Cc1c(O)cccc1C(=O)N[C@@H](CSc1ccccc1)[C@H](O)CN1C[C@H]2CCCC[C@H]2C[C@H]1C(=O)NC(C)(C)C reported_property=outcome result=inactive
smiles_text=Nc1nc2ccccc2[nH]1 reported_property=outcome result=inactive
smiles_text=CC[C@]1(O)C[C@@H]2CN(CCc3c([nH]c4ccccc34)[C@@](C(=O)OC)(c3cc4c(cc3OC)N(C)[C@H]3[C@@](O)(C(=O)OC)[C@H](OC(C)=O)[C@]5(CC)C=CCN6CC[C@]43[C@@H]65)C2)C1 reported_property=outcome result=inactive

###

Experiment: qHTS assay to test for compound auto fluorescence at 460 nm (blue) in HEK293 cell free culture (AID 720681)
Details: cell-free medium, autofluorescence 405/460 nm (blue); series mostly up to 91.3 µM
The source made the active and inactive calls. The call rests on the fitted dose curve; in most records, active means well fitted curve in the direction sought with a large enough effect in the repeat runs; inconclusive means weak or mixed curves; inactive means flat fitted curve, though single readings scatter.
Labels: 1 = active, 0 = inactive

compound=CC[C@@H](N)CO assigned_label=0
compound=Nc1ccc2cc3ccccc3cc2c1 assigned_label=1
compound="CC(COc1ccccc1)N(CCCl)Cc1ccccc1 (stereo not drawn)" assigned_label=0
compound=O=C(O[C@@H]1Cc2c(O)cc(O)cc2O[C@@H]1c1cc(O)c(O)c(O)c1)c1cc(O)c(O)c(O)c1 assigned_label=0
compound=CCc1cc(C(C)(C)C)c(O)c(C(C)(C)C)c1 assigned_label=0
compound=CC[C@]1(O)C[C@@H]2CN(CCc3c([nH]c4ccccc34)[C@@](C(=O)OC)(c3cc4c(cc3OC)N(C)[C@H]3[C@@](O)(C(=O)OC)[C@H](OC(C)=O)[C@]5(CC)C=CCN6CC[C@]43[C@@H]65)C2)C1 assigned_label=0
compound=CCN(CC)c1ccc2c(C)cc(=O)oc2c1 assigned_label=1
compound=C=CC(=O)OCCCCCCCC assigned_label=0
compound=Cc1cc(Cc2cc(C)cc(C(C)(C)C)c2O)c(O)c(C(C)(C)C)c1 assigned_label=0
compound="COc1ccc(CCN(C)CCCC(C#N)(c2ccc(OC)c(OC)c2)C(C)C)cc1OC (stereo not drawn)" assigned_label=0
compound=Nc1nc2ccccc2[nH]1 assigned_label=0
compound=C/C=C/c1ccc(OCC)c(O)c1 assigned_label=0
compound=N[C@@H]1CONC1=O assigned_label=0
compound=O=C(O)CP(=O)(O)O assigned_label=0
compound=CC1=C(C=O)C(C)(C)CC=C1 assigned_label=0
compound=O assigned_label=0
compound=CC(=O)N[C@@H](CS)C(=O)O assigned_label=0
compound=CCN(CC)C(=S)SSC(=S)N(CC)CC assigned_label=0
compound=CC(=O)CC(C)=O assigned_label=0
compound="CCN(CC)C(=O)Nc1ccc(OCC(O)CNC(C)(C)C)c(C(C)=O)c1 (stereo not drawn)" assigned_label=0
compound="CCCNC(C)C(=O)Nc1ccccc1C (stereo not drawn)" assigned_label=0
compound=O=C(O)c1cc(Cl)cc(Cl)c1 assigned_label=0
compound=O=C(Cl)c1cccc(C(=O)Cl)c1 assigned_label=0
compound=O=Nc1ccc(Nc2ccccc2)cc1 assigned_label=0
compound=CC(=O)C1=C(C)[C@@H]2C[C@@]3(C1)[C@H](C)CC[C@H]3C2(C)C assigned_label=0
compound=COC(c1ccccc1)(c1ccccc1)[C@H](Oc1nc(C)cc(C)n1)C(=O)O assigned_label=0
compound=CC(C)CCCCCCc1ccc(O)cc1 assigned_label=0
compound=OCC(CO)N[C@H]1C[C@](O)(CO)[C@@H](O)[C@H](O)[C@H]1O assigned_label=0
compound="CCOC(=O)C(C)C(C)=O (stereo not drawn)" assigned_label=0
compound=NC12CC3CC(CC(C3)C1)C2 assigned_label=0
compound=COc1cc(C(=S)N2CCOCC2)ccc1O assigned_label=0
compound=CC(C)(C)c1ccccc1 assigned_label=0
compound=C=CS(=O)(=O)O assigned_label=0
compound=COC(=O)/C=C/c1ccccc1 assigned_label=0
compound=CN1C(=O)c2ccc([N+](=O)[O-])cc2C1=O assigned_label=0
compound=CC(=O)O[C@]1(C(C)=O)CC[C@H]2[C@@H]3C[C@H](C)C4=CC(=O)CC[C@]4(C)[C@H]3CC[C@@]21C assigned_label=0
compound=Nc1cc(Cl)c(-c2cc(Cl)c(N)cc2Cl)cc1Cl assigned_label=0
compound="C=C(C)C1CC=C(C)C(OC(C)=O)C1 (stereo not drawn)" assigned_label=0
compound="CCCCCCC(O)CCCCCCCCCCC(=O)O (stereo not drawn)" assigned_label=0
compound=CC(C)C(=O)c1c(C(C)C)nn2ccccc12 assigned_label=0
compound="CC1COc2c(N3CCN(C)CC3)c(F)cc3c(=O)c(C(=O)O)cn1c23 (stereo not drawn)" assigned_label=0
compound=CCCC(=O)c1ccccc1 assigned_label=0
compound=c1cnc2cc3c(cc2n1)C1CNCC3C1 assigned_label=0
compound=COC(=O)c1cccc(C(=O)OC)c1 assigned_label=0
compound="CCC(=O)/C=C/C1C(C)=CCCC1(C)C (stereo not drawn)" assigned_label=0
compound=Cc1cc(C2(c3cc(C)c(O)cc3C)OS(=O)(=O)c3ccccc32)c(C)cc1O assigned_label=0
compound=CC(C)(O)CCC(C)(C)O assigned_label=0
compound=CCOc1ccccc1C(N)=O assigned_label=0
compound=NC(=Nc1ccccc1)Nc1ccccc1 assigned_label=0
compound=O=S(=O)(O)c1ccc2nc(-c3ccccc3)[nH]c2c1 assigned_label=0
compound=C1COC(NC(C2CC2)C2CC2)=N1 assigned_label=0
compound=CC(C)(c1ccccc1)c1ccc(Nc2ccc(C(C)(C)c3ccccc3)cc2)cc1 assigned_label=0
compound=O=C1OC2(c3ccc(O)cc3Oc3cc(O)ccc32)c2ccccc21 assigned_label=0
